All figures here come from PubChem BioAssay (NCI).

- System: HCC-2998 colon
- PROTOCOL SUMMARY: NCI tumour cell line growth inhibition, 48 h
MEASUREMENT LABEL: TGI

// query I have this molecule here, CC1(C)C(=O)C(O)=CC2C1=CCC1C2(C)C(=O)CC2(C)C(C(C)(O)C(=O)CC(O)C(C)(C)O)C(O)CC12C (configuration not stated) , and I need its recorded TGI.
// result 14 µM

// query I have this molecule here, N#Cc1nc(CCCN2C(=O)c3ccccc3C2=O)oc1N , and I need its recorded TGI.
// result > 100 µM

// query I have this molecule here, COc1cc2[nH]c(=O)c3cc(-c4ccccc4)cc4c(Cl)nc(c1OC)c2c43 , and I need its recorded TGI.
// result > 86.4 µM

// query I have this molecule here, C/C(=N/N(C=O)C[n+]1ccccc1)C(CN(CC(C)C)CC(C)C)C(=O)Nc1ccc(C)cc1C (configuration not stated) , and I need its recorded TGI.
// result > 100 µM

// query I have this molecule here, COc1ccc(-c2cc(-c3ccc(Cl)cc3)c(C#N)c(=O)n2CCCCC(=O)Nc2ccccc2N)cc1 , and I need its recorded TGI.
// result 79.9 µM

// query I have this molecule here, CC(C)N(C(C)C)[PH+]1O[PH+](N(C(C)C)C(C)C)O[PH+](N(C(C)C)C(C)C)O[PH+](N(C(C)C)C(C)C)O[PH+](N(C(C)C)C(C)C)O1.[C-]#[O+].[C-]#[O+].[C-]#[O+].[C-]#[O+].[C-]#[O+].[C-]#[O+].[C-]#[O+].[Cr].[Cr] (configuration not stated) , and I need its recorded TGI.
// result > 100 µM

// query I have this molecule here, Cc1cccc(NS(=O)(=O)c2ccc(N=Nc3c(O)c(C(=O)O)cc4ccccc34)cc2)n1 , and I need its recorded TGI.
// result > 100 µM

###

- System: EKVX NSCLC
- PROTOCOL SUMMARY: NCI tumour cell line growth inhibition, 48 h
MEASUREMENT LABEL: TGI

// query Give recorded TGI with EKVX NSCLC for the following compound: COc1ccc(C2C(Cl)C(=O)N2n2cnc3ccccc3c2=O)cc1OC (stereo not given)
// result > 100 µM

// query Give recorded TGI with EKVX NSCLC for the following compound: COc1cc2c3c(cc(Cl)nc3c1OC)C(=O)C(=O)N2
// result 11.9 µM

// query Give recorded TGI with EKVX NSCLC for the following compound: COc1ccc(C(=O)N2c3ccccc3Sc3ccccc32)c(F)c1
// result > 100 µM

// query Give recorded TGI with EKVX NSCLC for the following compound: CC(=O)C1(O)CCC2(O)C3(O)CC=C4CC(O)CCC4(C)C3CC(OC(=O)c3ccc(O)cc3)C12C (stereo not given)
// result > 100 µM

// query Give recorded TGI with EKVX NSCLC for the following compound: CON(C)C(=O)C(C)NC(=O)OCc1ccccc1 (stereo not given)
// result > 100 µM

// query Give recorded TGI with EKVX NSCLC for the following compound: CCCCCCc1cc2cc(-c3csc(-c4ccc(OC)cc4)n3)c(=O)oc2cc1O
// result 45.1 µM

// query Give recorded TGI with EKVX NSCLC for the following compound: COc1cc2[nH]c(=O)c3cc(-c4ccccc4)cc4c(Cl)nc(c1OC)c2c43
// result 64 µM

// query Give recorded TGI with EKVX NSCLC for the following compound: CSc1nc2c(c(O)c(C)c(=O)n2C2OC(COC(C)=O)C(OC(C)=O)C(OC(C)=O)C2OC(C)=O)c(=O)n1C (stereo not given)
// result > 100 µM

// query Give recorded TGI with EKVX NSCLC for the following compound: CCc1ccccc1NC(=O)C(=O)C(C(=O)c1ccc(OC)cc1)c1ccc(OC)cc1 (stereo not given)
// result > 100 µM

// query Give recorded TGI with EKVX NSCLC for the following compound: O=C1/C(=C/c2ccc(Cl)cc2)CCCc2ccc(F)cc21
// result 61 µM

// query Give recorded TGI with EKVX NSCLC for the following compound: Cc1cc([N+](=O)[O-])c(C)c2c1[nH]c1ccc(/C(CCC3CCCC3)=N\N)cc12
// result 32 µM

// query Give recorded TGI with EKVX NSCLC for the following compound: CC[N+]1(C)CCC(O)(c2ccc(C)cc2)C(C(=O)c2ccc(C)cc2)C1 (stereo not given)
// result > 100 µM

// query Give recorded TGI with EKVX NSCLC for the following compound: Cc1nnc2n1-c1ccccc1N(Cc1ccccc1)CC2
// result > 100 µM

// query Give recorded TGI with EKVX NSCLC for the following compound: CC(=O)N(CCN)CCN
// result > 100 µM

// query Give recorded TGI with EKVX NSCLC for the following compound: c1c(N2CCOCC2)ssc1=[N+]1CCOCC1
// result > 100 µM

// query Give recorded TGI with EKVX NSCLC for the following compound: Cc1cc(Cl)ccc1NC(=O)C(=O)Cc1nc2ccc(C(=O)c3ccccc3)cc2[nH]c1=O
// result > 100 µM

// query Give recorded TGI with EKVX NSCLC for the following compound: O=c1ccn(-c2ccccn2)c(=O)n1-c1ccccn1
// result > 100 µM

// query Give recorded TGI with EKVX NSCLC for the following compound: C[n+]1c(-c2ccc(NC(=O)c3ccc(C(=O)Nc4ccc(-c5cn6ccccc6[n+]5C)cc4)cc3)cc2)cn2ccccc21
// result > 100 µM

// query Give recorded TGI with EKVX NSCLC for the following compound: Nc1c(C(=O)Nc2ccc([As](=O)(O)O)cc2)cnc2nnnn12
// result > 100 µM

// query Give recorded TGI with EKVX NSCLC for the following compound: Clc1ccc([O][In]([O]c2ccc(Cl)cn2)[O]c2ccc(Cl)cn2)nc1
// result > 100 µM

// query Give recorded TGI with EKVX NSCLC for the following compound: Cc1cc(O)c2c(c1)C(O)(c1ccc3c(c1O)C(=O)c1c(O)cc(C)cc1C3(O)C1OC(CO)C(O)C(O)C1O)c1cccc(O)c1C2=O (stereo not given)
// result 28.2 µM

// query Give recorded TGI with EKVX NSCLC for the following compound: Cc1cc2c(cc1C)NC1=C(N2)OC(c2c[nH]c3ccc(COc4ccccc4)cc23)C1=O (stereo not given)
// result > 100 µM

// query Give recorded TGI with EKVX NSCLC for the following compound: O=C(Nc1ccc(OC(F)(F)F)cc1)c1sccc1NCc1ccnc2ccccc12
// result > 100 µM

// query Give recorded TGI with EKVX NSCLC for the following compound: Clc1ccccc1NN(Cc1ccccn1)c1ccccc1Cl
// result 52.5 µM

// query Give recorded TGI with EKVX NSCLC for the following compound: C[N+]1(CCN=C=NC2CCCCC2)CCOCC1
// result > 100 µM

// query Give recorded TGI with EKVX NSCLC for the following compound: O=C(Sc1c(-c2ccccc2)c(=O)n(-c2ccccc2)c(=S)n1-c1ccccc1)c1ccco1
// result > 100 µM

// query Give recorded TGI with EKVX NSCLC for the following compound: O=P(OCc1ccccc1)(OCc1ccccc1)C(O)/C=C/c1ccccc1 (stereo not given)
// result 95.6 µM

// query Give recorded TGI with EKVX NSCLC for the following compound: N#Cc1ccc(-c2nc(C#N)c(N)o2)cc1
// result > 10 µM

// query Give recorded TGI with EKVX NSCLC for the following compound: CN(C)CCCNc1cc(O)c2c(c1O)C(=O)c1ccccc1C2=O
// result 31.1 µM

// query Give recorded TGI with EKVX NSCLC for the following compound: CNC(=O)Nc1ccc(-c2nc(N3CCOCC3)nc3c2cnn3C2CCOCC2)cc1
// result 2.42 µM

###

- Tested on: A498 renal
- PROTOCOL SUMMARY: NCI tumour cell line growth inhibition, 48 h
MEASUREMENT LABEL: TGI (µM)
Number only, in µM; omit the unit.

// query I have this compound here, CCOc1snc(C(Cl)(Cl)Cl)c1Cl , and I need its recorded TGI.
// result 62.8

// query I have this compound here, Clc1ccccc1NN(Cc1ccccn1)c1ccccc1Cl , and I need its recorded TGI.
// result 34.9

// query I have this compound here, C=C1CC(COc2ccc3c(C)c(C)c(=O)oc3c2C)(c2ccccc2)OC1=O (stereo not given) , and I need its recorded TGI.
// result 12.5

// query I have this compound here, C[n+]1cc2c3c(ccc2c2ccc4cc5c(cc4c21)OCO5)OCO3 , and I need its recorded TGI.
// result 3.12

// query I have this compound here, C#C[C@]1(O)CC[C@H]2[C@@H]3CC=C4c5nc(Nc6ccccn6)sc5CC[C@]4(C)[C@H]3CC[C@@]21C , and I need its recorded TGI.
// result 1.19

// query I have this compound here, CC(C)(C)c1cc(/C=C2/NC(=O)NC2=O)cc(C(C)(C)C)c1O , and I need its recorded TGI.
// result 27

// query I have this compound here, Cc1ccc(C(=O)Nc2ccc(CN3CCN(C)CC3)c(C(F)(F)F)c2)cc1C#Cc1cnc(N)c2ccc(F)cc12 , and I need its recorded TGI.
// result 0.961

// query I have this compound here, Cc1cc(N(CCNc2ccnc3cc(Cl)ccc23)Cc2ccc3c(c2)OCO3)nc(N2CCN(C)CC2)n1 , and I need its recorded TGI.
// result 8.85

// query I have this compound here, COC1/C=C/OC2(C)Oc3c(C)c(O)c4c(c3C2=O)C(=O)C=C(NC(=O)/C(C)=C\C=C\C(C)C(OC=O)C(C)C(O)C(C)C(OC(C)=O)C1C)C4=O (stereo not given) , and I need its recorded TGI.
// result 41.3

// query I have this compound here, CNC(=S)NNc1ncnc2c1c(-c1ccc(Cl)cc1)cn2-c1ccc(C)cc1 , and I need its recorded TGI.
// result 49.6

// query I have this compound here, COc1ccc(C2=C(Cl)C(=O)O/C2=C\c2ccc(OC)c(Br)c2)cc1Cl , and I need its recorded TGI.
// result 52.9

// query I have this compound here, CCc1nc(N)nc(N)c1-c1ccc([N+](=O)[O-])c(NCc2ccccc2)c1 , and I need its recorded TGI.
// result 32.9

// query I have this compound here, COc1cc2nncc(Sc3cnnc4ccccc34)c2cc1OC , and I need its recorded TGI.
// result 82

// query I have this compound here, COc1ccc(-c2cc(-c3ccc(Cl)cc3)c(C#N)c(=O)n2CCCCC(=O)Nc2ccccc2N)cc1 , and I need its recorded TGI.
// result 48.9

// query I have this compound here, Nc1cc(N)c2nc(-c3ccccc3)c(Oc3ccc(F)cc3)nc2c1 , and I need its recorded TGI.
// result 39.6

// query I have this compound here, CC[C@H](C)[C@H](NC(=O)c1cnccn1)C(=O)N(C)[C@H](C[C@@H](OC(C)=O)c1nc(C(=O)N[C@@H](Cc2ccccc2)C[C@H](C)C(=O)OC)cs1)C(C)C , and I need its recorded TGI.
// result 3.15

// query I have this compound here, S=c1[nH]nc(Cn2c3ccc(Br)cc3c3nc4ccccc4nc32)n1C1CCCCC1 , and I need its recorded TGI.
// result 58.1

// query I have this compound here, Cc1ccc(C(=O)/C(=C/c2ccc([N+](=O)[O-])cc2)S(=O)Cc2ccccc2)cc1 (stereo not given) , and I need its recorded TGI.
// result 3.4

// query I have this compound here, O=CN1CCN(C(=O)c2ccco2)C1=S , and I need its recorded TGI.
// result 39.7

// query I have this compound here, CC(=O)OC1CC2(O)C(CCC3(C)C(c4ccc(=O)oc4)CCC32O)C2(C)C1=CC(O)C1OC12 (stereo not given) , and I need its recorded TGI.
// result 0.582

// query I have this compound here, C/C(=N\O)c1ccc(Nc2cc(-n3nnc4ccccc43)nc3ccccc23)cc1 , and I need its recorded TGI.
// result 30.8
